System: 266295-075-R-J1-PDC spheroid viability
Test: Anticancer human tumor 266295-075-R-J1-PDC patient-derived head and neck squamous carcinoma cell line growth inhibition [POLQ]
Details: second compound 0.316 µM; first compound 0.0316 µM; hits give low values; spheroids with HUVEC and MSC
Protocol: Multicellular complex tumor spheroid response to Polymerase (POL) inhibitors (novobiocin, ART-558, RP6685) in combination with a variety of drugs and investigational agents in selected tumor cell lines The POL inhibitors (novobiocin, ART-558, and RP6685) were evaluated both individually and in combination with standard of care and investigational anticancer small molecules within a complex spheroid model of solid tumors. . […]
Reported viability, T/C by item:
Output spec: scalar in %, unitless text.

Can you share its viability, T/C? I mean this molecule: C=CC(=O)N1CCN(c2nc(=O)n(-c3c(C)ccnc3C(C)C)c3nc(-c4c(O)cccc4F)c(F)cc23)C(C)C1 (stereo not drawn) + Cc1cccc(N(C)C(=O)C2C(O)CCN2c2nc(C)cc(C(F)(F)F)c2C#N)c1
93.6

Can you share its viability, T/C? I mean this molecule: COc1cccc(OCCCN)c1-c1cc(Nc2cnc(C#N)cn2)n[nH]1 + COC1C(OC(N)=O)C(O)C(Oc2ccc3c(O)c(NC(=O)c4ccc(O)c(CC=C(C)C)c4)c(=O)oc3c2C)OC1(C)C
78.6

Can you share its viability, T/C? I mean this molecule: COc1cccc(OCCCN)c1-c1cc(Nc2cnc(C#N)cn2)n[nH]1 + Cc1cccc(N(C)C(=O)C2C(O)CCN2c2nc(C)cc(C(F)(F)F)c2C#N)c1
68

###

system: 266295-075-R-J1-PDC spheroid viability; experiment: Anticancer human tumor 266295-075-R-J1-PDC cell line growth inhibition [POLQ]; details: second compound 0.1 µM; first compound 10 µM; hits give low values; spheroids with HUVEC and MSC;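 also: spheroids exposed to compounds for seven days before readout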
Reported viability, T/C by item:
Output spec: scalar in %, unitless text.

CC1COCCN1c1cc(-c2ccnn2C)c2ccnc(-c3ccn[nH]3)c2n1 (stereo not drawn) + COC1C(OC(N)=O)C(O)C(Oc2ccc3c(O)c(NC(=O)c4ccc(O)c(CC=C(C)C)c4)c(=O)oc3c2C)OC1(C)C = 41.6
CCCS(=O)(=O)Nc1ccc(F)c(C(=O)c2c[nH]c3ncc(-c4ccc(Cl)cc4)cc23)c1F + COC1C(OC(N)=O)C(O)C(Oc2ccc3c(O)c(NC(=O)c4ccc(O)c(CC=C(C)C)c4)c(=O)oc3c2C)OC1(C)C = 222

Can you share its viability, T/C? I mean this compound: C=CC(=O)N1CCN(c2nc(=O)n(-c3c(C)ccnc3C(C)C)c3nc(-c4c(O)cccc4F)c(F)cc23)C(C)C1 (stereo not drawn) + Nc1ccc(C#CCN(C(=O)Cc2ncc(C(F)(F)F)cc2C(F)(F)F)c2ccc(F)cc2)nn1
112

###

Reported viability, T/C by item:
tested on: 266295-075-R-J1-PDC spheroid viability; experiment: Anticancer human tumor 266295-075-R-J1-PDC cell line growth inhibition [POLQ]; details: second compound 3.16 µM; first compound 0.01 µM; hits give low values; spheroids with HUVEC and MSC;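 also: spheroids exposed to compounds for seven days before readout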
Output spec: scalar in %, unitless text.

Use these answered entries as a reference point.
C=CCn1c(=O)c2cnc(Nc3ccc(N4CCN(C)CC4)cc3)nc2n1-c1cccc(C(C)(C)O)n1 + Nc1ccc(C#CCN(C(=O)Cc2ncc(C(F)(F)F)cc2C(F)(F)F)c2ccc(F)cc2)nn1 = 106
CCc1c2c(nc3ccc(O)cc13)-c1cc3c(c(=O)n1C2)COC(=O)[C@]3(O)CC + Cc1cccc(N(C)C(=O)C2C(O)CCN2c2nc(C)cc(C(F)(F)F)c2C#N)c1 = 74.1
COc1cccc(OCCCN)c1-c1cc(Nc2cnc(C#N)cn2)n[nH]1 + Nc1ccc(C#CCN(C(=O)Cc2ncc(C(F)(F)F)cc2C(F)(F)F)c2ccc(F)cc2)nn1 = 101
COc1cccc(OCCCN)c1-c1cc(Nc2cnc(C#N)cn2)n[nH]1 + COC1C(OC(N)=O)C(O)C(Oc2ccc3c(O)c(NC(=O)c4ccc(O)c(CC=C(C)C)c4)c(=O)oc3c2C)OC1(C)C = 96.7

Proceed to the following item.
Can you share its viability, T/C? I mean this compound: Cn1ncnc1[C@H]1c2n[nH]c(=O)c3cc(F)cc(c23)N[C@@H]1c1ccc(F)cc1 + Nc1ccc(C#CCN(C(=O)Cc2ncc(C(F)(F)F)cc2C(F)(F)F)c2ccc(F)cc2)nn1
83.8
